B1: F-BAR and double SH3 domains protein 1, residues 467 to 528; numbered along this chain, Q86WN1 (parent)
chain: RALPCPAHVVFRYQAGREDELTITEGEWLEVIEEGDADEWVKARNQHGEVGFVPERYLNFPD

# Variants of: B1
# assay_comment: abundance fitness (aPCA) (normalised: wild type 0, dead -1); higher = more abundant; growth selection in yeast, the domain comes from the species named
# details: Homo sapiens
Record 1 (yes) whenever abundance fitness is at -0.3 or higher; record 0 (no) when lower.

variant_annotation: A2M
label_value: 1 (yes)

Q: Please indicate if the recorded abundance fitness for R1G meets or exceeds -0.3.
Result: 1 (yes)

Q: Now consider C5Q and answer again.
Result: 1 (yes)

Q: Now consider L21W and answer again.
Result: 0 (no)
